- ASSAY_INFO: Selectivity index, ratio of CC50 for African green monkey Vero cells to EC50 for Chikungunya virus 899 infected in African green monkey Vero cells
- Assay type: toxicity, cell-based
- PARTICULARS: read-out: Ratio CC50/EC50
Hi there, I'd appreciate the recorded selectivity ratio for every entry that follows.
Please reply with the number alone, leaving off any unit.

Exercise: Tell me its selectivity ratio given Cn1c(CSc2ccccc2C(F)(F)F)c(C(=O)OC(C)(C)C)c2cc(O)ccc21 as the entry.
Solution: 4.1

Exercise: Tell me its selectivity ratio given CN(C)Cc1c(O)c(Br)cc2c1c(C(=O)OC(C)(C)C)c(C[S+]([O-])c1ccccc1C(F)(F)F)n2C (stereo not given) as the entry.
Solution: 4.6

Exercise: Tell me its selectivity ratio given Cn1c(CSc2c(Cl)cccc2Cl)c(C(=O)OC(C)(C)C)c2cc(O)c(Br)cc21 as the entry.
Solution: 2.3

Exercise: Tell me its selectivity ratio given Cn1c(C[S+]([O-])c2c(Cl)cccc2Cl)c(C(=O)OC(C)(C)C)c2cc(CO)ccc21 (stereo not given) as the entry.
Solution: 13.2

Exercise: Tell me its selectivity ratio given Cn1c(CSc2ccccc2C(F)(F)F)c(C(=O)OC(C)(C)C)c2cc(O)c(Br)cc21 as the entry.
Solution: 2.7

---

- ASSAY_INFO: Selectivity index, ratio of CC50 for African green monkey Vero cells to EC50 for Chikungunya virus 899 infected in African green monkey Vero cells
- Assay type: toxicity, cell-based
- PARTICULARS: read-out: Ratio CC50/EC50
Hi there, I'd appreciate the recorded selectivity ratio for every entry that follows.
Please reply with the number alone, leaving off any unit.

Exercise: Tell me its selectivity ratio given Cn1c(CSc2ccc(F)cc2)c(C(=O)OC(C)(C)C)c2cc(O)ccc21 as the entry.
Solution: 3.2

Exercise: Tell me its selectivity ratio given Cn1c(CSc2c(Cl)cccc2Cl)c(C(=O)OC(C)(C)C)c2cc(O)ccc21 as the entry.
Solution: 2.7

Exercise: Tell me its selectivity ratio given CN(C)Cc1c(O)ccc2c1c(C(=O)OC(C)(C)C)c(C[S+]([O-])c1c(Cl)cccc1Cl)n2C (centres undefined) as the entry.
Solution: 2.2

Exercise: Tell me its selectivity ratio given Cn1c(CSc2ccc(Cl)cc2)c(C(=O)OC(C)(C)C)c2cc(O)ccc21 as the entry.
Solution: 3.2

Exercise: Tell me its selectivity ratio given Cn1c(C[S+]([O-])c2ccc(C(F)(F)F)cc2)c(C(=O)OC(C)(C)C)c2cc(O)ccc21 (centres undefined) as the entry.
Solution: 1.9

Exercise: Tell me its selectivity ratio given Cn1c(C[S+]([O-])c2ccc(Cl)cc2)c(C(=O)OC(C)(C)C)c2cc(O)ccc21 (centres undefined) as the entry.
Solution: 11

Exercise: Tell me its selectivity ratio given CN(C)Cc1c(O)ccc2c1c(C(=O)OC(C)(C)C)c(C[S+]([O-])c1ccccc1C(F)(F)F)n2C (centres undefined) as the entry.
Solution: 3

---

- ASSAY_INFO: Cytotoxicity against African green monkey Vero cells assessed as reduction in metabolic activity by MTS/PMS based microscopic analysis
- Format: toxicity, cell-based
- PARTICULARS: chlorocebus sabaeus
MEASUREMENT_KIND: log10(CC50) (log10 of the value in µM)
Please note: log10 values; quantity CC50; unit µM.

Exercise: Tell me its log10(CC50) given CCOC(=O)c1c(CSc2ccccc2)n(C)c2cc(Br)c(O)c(CN(C)C)c12 as the entry.
Solution: 2.21

Exercise: Tell me its log10(CC50) given CN(C)Cc1c(O)ccc2c1c(C(=O)OC(C)(C)C)c(C[S+]([O-])c1ccccc1C(F)(F)F)n2C (stereo not given) as the entry.
Solution: 1.82

Exercise: Tell me its log10(CC50) given Cn1c(CSc2c(Cl)cccc2Cl)c(C(=O)OC(C)(C)C)c2cc(O)ccc21 as the entry.
Solution: 0.89

Exercise: Tell me its log10(CC50) given Cn1c(CSc2ccccc2C(F)(F)F)c(C(=O)OC(C)(C)C)c2cc(O)c(Br)cc21 as the entry.
Solution: 1.41

Exercise: Tell me its log10(CC50) given Cn1c(CSc2ccc(C(F)(F)F)cc2)c(C(=O)OC(C)(C)C)c2cc(O)ccc21 as the entry.
Solution: 1.04

Exercise: Tell me its log10(CC50) given Cn1c(C[S+]([O-])c2ccc(C(F)(F)F)cc2)c(C(=O)OC(C)(C)C)c2cc(O)ccc21 (stereo not given) as the entry.
Solution: 1.38

Exercise: Tell me its log10(CC50) given Cn1c(C[S+]([O-])c2ccccc2C(F)(F)F)c(C(=O)OC(C)(C)C)c2cc(O)ccc21 (stereo not given) as the entry.
Solution: 2.19

Exercise: Tell me its log10(CC50) given Cn1c(CSc2ccccc2C(F)(F)F)c(C(=O)OC(C)(C)C)c2cc(O)ccc21 as the entry.
Solution: 1.28

Exercise: Tell me its log10(CC50) given Cn1c(CSc2c(Cl)cccc2Cl)c(C(=O)OC(C)(C)C)c2cc(O)c(Br)cc21 as the entry.
Solution: 1.11

Exercise: Tell me its log10(CC50) given Cn1c(C[S+]([O-])c2ccc(Cl)cc2)c(C(=O)OC(C)(C)C)c2cc(O)ccc21 (stereo not given) as the entry.
Solution: 1.97

Exercise: Tell me its log10(CC50) given CN(C)Cc1c(O)c(Br)cc2c1c(C(=O)OC(C)(C)C)c(C[S+]([O-])c1ccccc1C(F)(F)F)n2C (stereo not given) as the entry.
Solution: 1.75

Exercise: Tell me its log10(CC50) given Cn1c(CSc2ccc(F)cc2)c(C(=O)OC(C)(C)C)c2cc(O)ccc21 as the entry.
Solution: 1.04

Exercise: Tell me its log10(CC50) given Cn1c(C[S+]([O-])c2c(Cl)cccc2Cl)c(C(=O)OC(C)(C)C)c2cc(O)ccc21 (stereo not given) as the entry.
Solution: 2.18

Exercise: Tell me its log10(CC50) given Cn1c(CSc2ccc(Cl)cc2)c(C(=O)OC(C)(C)C)c2cc(O)ccc21 as the entry.
Solution: 1.18

Exercise: Tell me its log10(CC50) given Cn1c(C[S+]([O-])c2ccccc2C(F)(F)F)c(C(=O)OC(C)(C)C)c2cc(O)c(Br)cc21 (stereo not given) as the entry.
Solution: 1.41

Exercise: Tell me its log10(CC50) given CN(C)Cc1c(O)ccc2c1c(C(=O)OC(C)(C)C)c(C[S+]([O-])c1c(Cl)cccc1Cl)n2C (stereo not given) as the entry.
Solution: 0.96

Exercise: Tell me its log10(CC50) given Cn1c(C[S+]([O-])c2c(Cl)cccc2Cl)c(C(=O)OC(C)(C)C)c2cc(CO)ccc21 (stereo not given) as the entry.
Solution: 2.60

Exercise: Tell me its log10(CC50) given CN(C)Cc1c(O)c(Br)cc2c1c(C(=O)OC(C)(C)C)c(CSc1c(Cl)cccc1Cl)n2C as the entry.
Solution: 1.23

---

Hi there, I'd appreciate the recorded CC50 for every entry that follows.
- ASSAY_INFO: Cytotoxicity against African green monkey BGM cells
- Format: toxicity, cell-based
- PARTICULARS: chlorocebus aethiops

Exercise: Tell me its CC50 given Cn1c(C[S+]([O-])c2ccccc2C(F)(F)F)c(C(=O)OC(C)(C)C)c2cc(CO)ccc21 (stereo not drawn) as the entry.
Solution: > 60 µM

Exercise: Tell me its CC50 given Cn1c(C[S+]([O-])c2ccccc2C(F)(F)F)c(C(=O)OC(C)(C)C)c2cc(O)ccc21 (stereo not drawn) as the entry.
Solution: 50 µM

Exercise: Tell me its CC50 given CCOC(=O)c1c(CSc2ccccc2)n(C)c2cc(Br)c(O)c(CN(C)C)c12 as the entry.
Solution: > 60 µM
